The values you see were collected from patent US20220289708A1.

Tested on: Oryza sativa
Assay: Post-emergence crop plant compatibility
Format: in vivo
Conditions: application rate 5 g/ha
Procedure: a. Post-Emergence Herbicidal Action and Crop Plant Compatibility Seeds of monocotyledonous and dicotyledonous weeds and crop plants were placed in sandy loam in plastic or wood-fiber pots, covered with soil and cultivated in a greenhouse under controlled growth conditions. 2 to 3 weeks after sowing, the test plants were treated at the one-leaf stage. […]
Measured Attribute: Oryza sativa (efficacy in %)

Compound | Measured Attribute | Unit Annotation | Obs Value
Cn1c(C(F)(F)F)cc(=O)n(-c2cc(Oc3cccnc3OCC(=O)OC[Si](C)(C)C)c(Cl)cc2F)c1=O | Oryza sativa (efficacy in %) | % | 0
Cn1c(C(F)(F)F)cc(=O)n(-c2cc(Sc3cccnc3OCC(=O)OCc3ccccn3)c(Cl)cc2F)c1=O | Oryza sativa (efficacy in %) | % | 0
Cn1c(C(F)(F)F)cc(=O)n(-c2cc(Oc3cccnc3OCC(=O)OCCOC(F)(F)F)c(Cl)cc2F)c1=O | Oryza sativa (efficacy in %) | % | 20
COCCOC(=O)COc1ncccc1Oc1cc(-n2c(=O)cc(C(F)(F)F)n(C)c2=O)c(F)cc1[N+](=O)[O-] | Oryza sativa (efficacy in %) | % | 0
Cn1c(C(F)(F)F)cc(=O)n(-c2cc(Sc3cccnc3SCC(=O)OCC3CCOC3)c(Cl)cc2F)c1=O (stereo not shown) | Oryza sativa (efficacy in %) | % | 20
CCS(=O)(=O)NCCOC(=O)COc1ncccc1Oc1cc(-n2c(=O)cc(C(F)(F)F)n(C)c2=O)c(F)cc1Br | Oryza sativa (efficacy in %) | % | 20
Cn1c(C(F)(F)F)cc(=O)n(-c2cc(Sc3cccnc3OCC(=O)OCC#N)c(Cl)cc2F)c1=O | Oryza sativa (efficacy in %) | % | 20
